ASSAY SUMMARY: NCI Yeast Anticancer Drug Screen. Data for the cln2 rad14 strain (AID 165);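 also: 0% = growth equal to vehicle treated cultures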
EXPERIMENTAL CONTEXT: S. cerevisiae cln2 rad14 strain, at 50.0 µM, active compounds read high
Compounds without any hit were thinned out: in the full panel of roughly 79,000, 15% have a hit.
Could you please report measured growth inhibition for the items listed next?
Please reply with the bare figure in % and do not write the unit itself.

Form field: reported growth inhibition of `CC(=O)Nc1ccc(-c2nnc(SCC(=O)Nc3cccc(C)c3)o2)cc1`
24

Follow-up item: `C#CCOc1ccc(O)c(C(=O)OCCCOC(=O)c2cc(OCC#C)ccc2O)c1`
16.9

// query: O=C1NC(=O)C2(CCC(O)C2)c2cc[n+]([O-])cc21 (stereo unspecified)
8.25

Try `CC(C)(c1cccs1)c1cscc1C(=O)O` next.
-28.8

// query: Cn1c2c(c3ccccc31)CC1c3c(c4ccccc4n3C)CC21 (stereo unspecified)
-26.2

Also need C=C(C)CC1(C)C(=O)CCC1O (stereo unspecified) , thanks.
-30.8

Values from PubChem BioAssay (NCI)
